Biological target: PI3Kδ (Homo sapiens)
Construct: Full length p110 subunits of PI3k α, β and δ, N-terminally labeled with polyHis tag; polyHis (N); made in house; host or cells: Sf9 insect cells (baculovirus)
Sequence (O00329 whole entry): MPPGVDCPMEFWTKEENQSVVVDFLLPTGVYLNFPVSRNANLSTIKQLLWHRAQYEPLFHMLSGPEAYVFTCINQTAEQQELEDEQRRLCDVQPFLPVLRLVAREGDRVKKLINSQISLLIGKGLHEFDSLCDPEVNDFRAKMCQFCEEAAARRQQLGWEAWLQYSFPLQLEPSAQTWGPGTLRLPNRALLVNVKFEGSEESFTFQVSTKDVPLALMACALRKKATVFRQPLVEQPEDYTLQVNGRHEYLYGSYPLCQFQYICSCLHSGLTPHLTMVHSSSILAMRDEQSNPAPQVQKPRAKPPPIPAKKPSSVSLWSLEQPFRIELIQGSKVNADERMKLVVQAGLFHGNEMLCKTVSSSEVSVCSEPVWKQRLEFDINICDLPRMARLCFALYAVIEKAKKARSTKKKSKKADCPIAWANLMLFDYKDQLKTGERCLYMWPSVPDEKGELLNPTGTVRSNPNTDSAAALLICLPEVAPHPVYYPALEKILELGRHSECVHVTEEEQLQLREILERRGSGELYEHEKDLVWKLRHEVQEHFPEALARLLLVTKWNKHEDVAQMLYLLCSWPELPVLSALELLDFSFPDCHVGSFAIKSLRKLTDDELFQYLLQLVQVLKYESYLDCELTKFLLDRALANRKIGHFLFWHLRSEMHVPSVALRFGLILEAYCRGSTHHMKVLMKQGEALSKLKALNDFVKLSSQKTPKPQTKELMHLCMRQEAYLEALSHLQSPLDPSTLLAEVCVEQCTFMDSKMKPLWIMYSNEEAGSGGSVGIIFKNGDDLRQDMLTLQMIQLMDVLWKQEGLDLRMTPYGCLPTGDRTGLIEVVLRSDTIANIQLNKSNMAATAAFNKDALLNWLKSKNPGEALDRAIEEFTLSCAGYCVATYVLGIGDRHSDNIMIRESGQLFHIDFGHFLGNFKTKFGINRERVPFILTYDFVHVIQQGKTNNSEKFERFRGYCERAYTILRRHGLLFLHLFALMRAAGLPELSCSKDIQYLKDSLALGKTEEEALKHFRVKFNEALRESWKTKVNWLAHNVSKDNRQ
Sequence (P27986 whole entry partner): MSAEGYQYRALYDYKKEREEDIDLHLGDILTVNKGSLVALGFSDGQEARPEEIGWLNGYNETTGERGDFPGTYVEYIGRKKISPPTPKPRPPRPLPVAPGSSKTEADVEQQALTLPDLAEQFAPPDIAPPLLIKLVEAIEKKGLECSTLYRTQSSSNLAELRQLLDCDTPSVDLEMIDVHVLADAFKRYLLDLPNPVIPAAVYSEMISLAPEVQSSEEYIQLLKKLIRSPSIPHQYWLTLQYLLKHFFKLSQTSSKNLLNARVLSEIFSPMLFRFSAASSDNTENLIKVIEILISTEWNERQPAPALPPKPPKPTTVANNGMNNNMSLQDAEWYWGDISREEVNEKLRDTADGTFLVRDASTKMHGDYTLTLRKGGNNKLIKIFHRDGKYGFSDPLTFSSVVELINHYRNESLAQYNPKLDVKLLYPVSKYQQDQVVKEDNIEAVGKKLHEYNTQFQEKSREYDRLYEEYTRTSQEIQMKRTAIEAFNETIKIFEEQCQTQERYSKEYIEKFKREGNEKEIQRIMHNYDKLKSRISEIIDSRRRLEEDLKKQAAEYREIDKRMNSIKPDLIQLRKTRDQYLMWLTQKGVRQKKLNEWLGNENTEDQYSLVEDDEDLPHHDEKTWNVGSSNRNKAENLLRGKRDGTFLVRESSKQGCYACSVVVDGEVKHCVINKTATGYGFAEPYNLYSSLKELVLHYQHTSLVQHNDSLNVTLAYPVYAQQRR
Experiment: PI3Kδ Alphascreen assay
Assay type: biochemical
Lab note: cut-off is 2 nM. Strictly less in Ki is met. Exactly 2 nM or more is not met.

Molecule	Assigned label
C[C@H](Nc1ncnc(N)c1C#N)c1nc2ccc(F)cc2c(C(=O)N2CC[C@H](O)C2)c1-c1ccccc1	met
C[C@@H](Nc1ncnc(N)c1C#N)c1nc2cccc(F)c2c(S(C)(=O)=O)c1-c1ccccc1	not met
CC(Nc1ncnc(N)c1C#N)c1nc2ccc(F)cc2c(C(=O)N2CCOCC2)c1-c1ccccc1 (stereo not drawn)	not met
C[C@H](Nc1ncnc(N)c1C#N)c1nc2ccc(F)cc2c(NCCS(C)(=O)=O)c1-c1ccccc1	met
CC(Nc1ncnc2[nH]cnc12)c1nc2ccc(F)cc2c(S(C)(=O)=O)c1-c1ccccc1 (stereo not drawn)	not met
CC(Nc1ncnc(N)c1C#N)c1nc2ncccc2cc1-c1ccccn1 (racemic)	not met
C[C@H](Nc1ncnc(N)c1C#N)c1nc2ccc(F)cc2c(S(C)(=O)=O)c1-c1ccccc1	met
CSc1c(-c2ccccc2)c(C(C)Nc2ncnc(N)c2C#N)nc2ccc(F)cc12 (stereo not drawn)	not met
C[C@@H](c1nc2ccc(F)cc2cc1-c1ccccn1)n1nc(C#N)c2c(N)ncnc21	not met
